FYI, the data here is from the Kinase Knowledgebase extract (Sharma et al. 2016).

Form: system (PIK3CD (Human)), quantity (IC50), values below.
Note: unit nM is implicit; provide only the numeric part.

Look over these answered cases.
CCn1ncc(-c2nc3c(O[C@H]4CCN(C(=O)c5conc5C)C4)ncnc3n2C)c1C	14
CCn1ncc(-c2nc3c(CC4CCN(C(=O)C5CCOCC5)C4)ncnc3n2C)c1C (stereo not drawn)	290
CCn1c(-c2cnc(OC)c(F)c2)nc2c(O[C@H]3CCN(C(=O)c4cncn4C)C3)ncnc21	1.5
CCn1ncc(-c2nc3c(O[C@H]4CCN(C(=O)c5c[nH]nn5)C4)ncnc3n2C)c1C	12
CCC(=O)N1CC[C@H](Oc2ncnc3c2nc(-c2ccc4[nH]ccc4c2)n3C)C1	37

Asked: Provide the reported IC50 (system: PIK3CD (Human)) for CCC(=O)N1CC[C@H](Oc2ncnc3c2nc(-c2cc(O)cc(F)c2)n3C)C1
Given back: 3.8

Asked: Provide the reported IC50 (system: PIK3CD (Human)) for CCC(=O)N1CC[C@H](Oc2ncnc3c2nc(I)n3C)C1
Given back: 140
